Tested on: 743489-274-T-PDC complex spheroid growth;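 also: spheroids exposed to agents for 7 days before readout; 100% = DMSO vehicle control wells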
Test: Anticancer human tumor 743489-274-T-PDC patient-derived renal cell carcinoma cell line growth inhibition [AhR]
Details: second compound 1 µM; first compound 10 µM; active compounds read low
viability, T/C values for the compounds below.
Please state the figure in %; there is no need to write the unit.

Some compounds with known viability, T/C results, for comparison:
CC1(C)CCC(CN2CCN(c3ccc(C(=O)NS(=O)(=O)c4ccc(NCC5CCOCC5)c([N+](=O)[O-])c4)c(Oc4cnc5[nH]ccc5c4)c3)CC2)=C(c2ccc(Cl)cc2)C1 + CC(CO)NC(=O)c1cc(-c2ccc(Cl)cc2)nn(-c2cnn(C)c2)c1=O	95.8
COc1ccc([C@@H](O)c2cc(-c3ncnc4cc(N5CCOCC5)ccc34)c(F)cc2Cl)nn1 + Cc1cncc(-c2nc(NCCc3c[nH]c4ccccc34)c3ncn(C(C)C)c3n2)c1	35.5
COc1ccc([C@@H](O)c2cc(-c3ncnc4cc(N5CCOCC5)ccc34)c(F)cc2Cl)nn1 + Cc1ccccc1N=Nc1ccc(NC(=O)c2ccnn2C)c(C)c1	22.8
Nc1ccccc1NC(=O)c1ccc(CNC(=O)OCc2cccnc2)cc1 + Cc1ccccc1N=Nc1ccc(NC(=O)c2ccnn2C)c(C)c1	24.5
CC(C)c1c(-c2ccccc2)nc2c(C#N)c[nH]n2c1=O + Cc1ccccc1N=Nc1ccc(NC(=O)c2ccnn2C)c(C)c1	96.2

## Input Find the recorded viability, T/C belonging to COc1ccc([C@@H](O)c2cc(-c3ncnc4cc(N5CCOCC5)ccc34)c(F)cc2Cl)nn1 + CC(CO)NC(=O)c1cc(-c2ccc(Cl)cc2)nn(-c2cnn(C)c2)c1=O and report it.
## Output 25.5

## Input Which viability, T/C reading was recorded for the compound O=C(C=Cc1cccc(S(=O)(=O)Nc2ccccc2)c1)NO + Cc1cncc(-c2nc(NCCc3c[nH]c4ccccc34)c3ncn(C(C)C)c3n2)c1 ?
## Output 52.7

## Input Any idea what viability, T/C was measured for COc1cccc2c1C(=O)c1c(O)c3c(c(O)c1C2=O)CC(O)(C(=O)CO)CC3OC1CC(N)C(O)C(C)O1 (configuration not stated) + Cc1ccccc1N=Nc1ccc(NC(=O)c2ccnn2C)c(C)c1 ?
## Output 47.3

## Input For the compound shown here, O=C(C=Cc1cccc(S(=O)(=O)Nc2ccccc2)c1)NO + Cc1ccccc1N=Nc1ccc(NC(=O)c2ccnn2C)c(C)c1 , give the reported viability, T/C.
## Output 25
